ASSAY_INFO: In situ single-pass rat intestinal perfusion
Format: in vivo
MEASUREMENT_SETUP: rat, outlet intestinal perfusate, other: in situ single-pass intestinal perfusion, 100 μg/mL, rat intestinal perfusion, 120 min; read-out: Corrected outlet PMX concentration (Cout,corr)
RECORDED_METRIC: concentration at 120 min (µg/mL)

COMPOUND	UNITS_OF_MEASURE	EXPERIMENTAL_VALUE
Nc1nc2[nH]cc(CCc3ccc(C(=O)N[C@@H](CCC(=O)O)C(=O)O)cc3)c2c(=O)[nH]1 [PMX, Pemetrexed]	µg/mL	96.4

----------
ASSAY_INFO: In situ single-pass rat intestinal perfusion
Type: in vivo
MEASUREMENT_SETUP: rat, outlet intestinal perfusate, other: in situ single-pass intestinal perfusion, 100 μg/mL, rat intestinal perfusion, 105 min; read-out: Corrected outlet PMX concentration (Cout,corr)
RECORDED_METRIC: concentration at 105 min

SMILES_STRING	RECORDED_METRIC	EXPERIMENTAL_VALUE
Nc1nc2[nH]cc(CCc3ccc(C(=O)N[C@@H](CCC(=O)O)C(=O)O)cc3)c2c(=O)[nH]1	concentration at 105 min	95.8 µg/mL

----------
ASSAY_INFO: In situ single-pass rat intestinal perfusion
Type: in vivo
MEASUREMENT_SETUP: rat, outlet intestinal perfusate, other: in situ single-pass intestinal perfusion, 100 μg/mL, rat intestinal perfusion, 45 min; read-out: Outlet concentration of PMX (Cout)
RECORDED_METRIC: concentration at 45 min

SMILES_STRING	EXPERIMENTAL_VALUE
Nc1nc2[nH]cc(CCc3ccc(C(=O)N[C@@H](CCC(=O)O)C(=O)O)cc3)c2c(=O)[nH]1	92.5 µg/mL

----------
ASSAY_INFO: Octanol/water apparent partition coefficient
Type: physicochemical
MEASUREMENT_SETUP: n = 4, read-out: Log P (logarithm of the octanol/water partition coefficient)

COMPOUND	logP
Nc1nc2[nH]cc(CCc3ccc(C(=O)N[C@@H](CCC(=O)O)C(=O)O)cc3)c2c(=O)[nH]1 [PMX, Pemetrexed]	-1.14

----------
ASSAY_INFO: In situ single-pass rat intestinal perfusion
Type: in vivo
MEASUREMENT_SETUP: rat, outlet intestinal perfusate, other: in situ single-pass intestinal perfusion, 100 μg/mL, rat intestinal perfusion, 90 min; read-out: Corrected outlet PMX concentration (Cout,corr)

SMILES_STRING	UNITS_OF_MEASURE	concentration at 90 min
Nc1nc2[nH]cc(CCc3ccc(C(=O)N[C@@H](CCC(=O)O)C(=O)O)cc3)c2c(=O)[nH]1	µg/mL	96.5

----------
ASSAY_INFO: In vivo pharmacokinetic study in rats
Design: species or system Sprague–Dawley (SD) rats
MEASUREMENT_SETUP: Sprague-Dawley, rat, plasma, IV, 10 mg/kg PMX

MOLECULE	AUC(0-t), ng·h/mL
Nc1nc2[nH]cc(CCc3ccc(C(=O)N[C@@H](CCC(=O)O)C(=O)O)cc3)c2c(=O)[nH]1 [PMX, Pemetrexed]	25100

----------
ASSAY_INFO: In situ single-pass rat intestinal perfusion
Format: in vivo
MEASUREMENT_SETUP: rat, outlet intestinal perfusate, other: in situ single-pass intestinal perfusion, 100 μg/mL, rat intestinal perfusion, 75 min; read-out: Outlet concentration of PMX (Cout)
Description: The in situ single-pass intestinal effective permeabilities (Peff) of PMX, PMX/DL(1:1), PMX/DL(1:2), PMX/DL(1:1)-CD, and PMX/DL(1:2)-CD were investigated in rats. […] At the end of the experiment, the lengths and radii of the cannulated intestinal segments were measured, taking care to avoid stretching them. […] The outlet concentration of PMX in the perfusate was analyzed by HPLC as described above. […]

SMILES_STRING	concentration at 75 min (µg/mL)
Nc1nc2[nH]cc(CCc3ccc(C(=O)N[C@@H](CCC(=O)O)C(=O)O)cc3)c2c(=O)[nH]1	94.7
